The reported numbers originate from patent US20050282743A1.

# TEST_SYSTEM: T1, GST-PDZK1 PDZ domains 2, 3, 4, Q5T2W1
# T1 chain: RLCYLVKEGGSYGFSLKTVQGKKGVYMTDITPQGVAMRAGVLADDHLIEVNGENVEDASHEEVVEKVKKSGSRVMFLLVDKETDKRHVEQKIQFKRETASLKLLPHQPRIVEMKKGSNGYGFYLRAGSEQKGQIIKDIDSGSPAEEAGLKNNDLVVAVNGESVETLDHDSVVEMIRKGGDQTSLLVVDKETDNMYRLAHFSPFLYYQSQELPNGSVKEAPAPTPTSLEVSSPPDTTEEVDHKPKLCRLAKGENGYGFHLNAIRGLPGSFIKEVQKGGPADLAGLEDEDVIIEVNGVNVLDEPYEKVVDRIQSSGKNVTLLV
# ASSAY_PROCEDURE: G' assay; also: key of the grades not given here
EXPERIMENTAL_ENDPOINT: Classification (A450 class)
Quick reminder: number only, in A450 class, skip the unit.

[[record]]
binder = "EALQPEPGRKRIPLTRTTTF (modifications not checked) [somatostatin receptor 4]"
experimental_endpoint = "Classification"
numeric_value = 1


Reported Classification ( PSWRRSSLSESENATSLTTF (modifications not checked) [BLR-1] ) = 1

Reported Classification ( KENDYESISDLQQGRDITRL (modifications not checked) [PAG] ) = 1

Reported Classification ( PIPAGGCTFSGIFPTLTSPL (modifications not checked) [KIA 1481] ) = 2

Reported Classification ( DAKLKSDGTIAAITEKETHF (modifications not checked) [GABA transporter 3] ) = 1

Reported Classification ( ARHRVTSYTSSSVNVSSNL (modifications not checked) [IL-8RA] ) = 1

Reported Classification ( PPATPSPRLALPAHHNATRL (modifications not checked) [Na+/Pi cotransporter 2] ) = 1

Reported Classification ( AWDDSARAAGGQGLHVTAL (modifications not checked) [LPAP] ) = 3
